# Target Or System: HA-EGFP-Plk1, P53350
# Sequence (P53350 whole entry): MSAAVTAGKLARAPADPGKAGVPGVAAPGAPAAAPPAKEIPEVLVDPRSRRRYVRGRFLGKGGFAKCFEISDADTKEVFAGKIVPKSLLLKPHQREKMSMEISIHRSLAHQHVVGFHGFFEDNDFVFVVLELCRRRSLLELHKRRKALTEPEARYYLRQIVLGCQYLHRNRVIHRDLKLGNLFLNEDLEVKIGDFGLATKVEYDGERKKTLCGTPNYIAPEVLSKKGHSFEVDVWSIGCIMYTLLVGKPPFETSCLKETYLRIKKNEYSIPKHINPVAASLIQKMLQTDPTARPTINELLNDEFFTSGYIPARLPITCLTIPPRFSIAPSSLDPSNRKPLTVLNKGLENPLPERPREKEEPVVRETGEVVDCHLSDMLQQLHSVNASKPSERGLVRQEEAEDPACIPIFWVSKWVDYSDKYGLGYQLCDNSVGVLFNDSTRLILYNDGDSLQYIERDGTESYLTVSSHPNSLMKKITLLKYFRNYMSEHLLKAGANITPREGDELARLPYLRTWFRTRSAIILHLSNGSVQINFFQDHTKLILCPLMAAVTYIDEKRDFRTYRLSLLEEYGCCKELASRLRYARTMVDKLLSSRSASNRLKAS
# Assay: ELISA
# Test Context: remark: other sources report otherwise
Where no end group is shown, it is not given here. [ ]: non-standard residue; d: D form. The star is where a group is joined. pT = C[C@@H](OP(=O)(O)O)[C@H](N)C(=O)O; Butyl(4-Ph) = c1ccc(CCCC*)cc1
Measured Attribute: pIC50
Note on pIC50: it is the negative log10 of concentration, concentration in mol/L.

Entry under test: P(Butyl(4-Ph))LHA[pT] [peptide 7(S4A)] . Its pIC50 was 4.37
